Attribution: patent US20210179715A1

Molecular target: hu.20A12.IA.SNA.H12(V3-23).L2(K1-5)
Experiment: BIAcore; 37 C
measurement-label: Kd (pM)
Give the number; pM is assumed, so skip it.

// query Fill in reported Kd for this entry: Ly6G6D (Fc fusion) NRMRCYNCGGSPSSSCKEAVTTCGEGRPQPGLEQIKLPGNPPVTLIHQHPACVAAHHCNQVETESVGDVTYPAHRDCYLGDLCNS
// result 105
